B1: EMD (parent)
chain: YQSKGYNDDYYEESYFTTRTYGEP

Variants of: B1
Assay: protein stability index of a GFP-peptide fusion (GPS, HEK-293T) (PSI 1-6); higher = more stable;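 also: lentivirally expressed fusions sorted by FACS into six bins by GFP to DsRed ratio, PSI derived from sequencing read proportions per bin multiplied by bin number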
Settings: c terminus: a fixed tail appended
Below: a set of entries, each annotated with reported protein stability index.
Keep the answer to the number alone.

Known results for variants:
1) YQSRGYNDDYYEESYFTTRTYGEP	2.44
2) YQSKGYNDDYYKESYFTTRTYGEP	2.33
3) YQSKGYNDDYYEESYFTTWTYGEP	2.03
4) YQSKGYNDDYYEEFYFTTRTYGEP	1.78
5) YQSKGYNDDYYEESYRTTRTYGEP	2.69

[ask] Any idea what protein stability index was measured for YQSKGYNDDYYEESYFCTRTYGEP ?
[reply] 1.96

[ask] Param item: YQSKGYNDEYYEESYFTTRTYGEP
[reply] 2.06

[ask] Param item: YQSKGYNDDYYMESYFTTRTYGEP
[reply] 2.26

[ask] Param item: YQSKGYNDDYYEESYFTTRTYVEP
[reply] 2.02

[ask] Param item: YQSKGYNDDYCEESYFTTRTYGEP
[reply] 2.36

[ask] Param item: YQSKGYNDDYYEESYFTTRTYEEP
[reply] 2.76

[ask] Param item: YQSKGYNDDYYEESYFTTRTYGVP
[reply] 2.48

[ask] Param item: LQSKGYNDDYYEESYFTTRTYGEP
[reply] 2.92

[ask] Param item: YQSKGYNDDYYEERYFTTRTYGEP
[reply] 1.9

[ask] Param item: YQSKGYNDDYYEESYPTTRTYGEP
[reply] 3.19

[ask] Param item: YQSKGYNDDYYEESYDTTRTYGEP
[reply] 3.47

[ask] Param item: YQSKGYNDDYYELSYFTTRTYGEP
[reply] 1.93

[ask] Param item: YQSKGYNDDYYETSYFTTRTYGEP
[reply] 2.29

[ask] Param item: YQSKGYNDDYYEEMYFTTRTYGEP
[reply] 2.26

[ask] Param item: YQSKGYNDCYYEESYFTTRTYGEP
[reply] 1.18

[ask] Param item: YQSKGYNDDYYEESYFITRTYGEP
[reply] 2.1

[ask] Param item: YQSKGYSDDYYEESYFTTRTYGEP
[reply] 2.47

[ask] Param item: YQSKGYNDDYYEQSYFTTRTYGEP
[reply] 1.87

[ask] Param item: YQSKGYNDDYYEESYFTTRTYGDP
[reply] 2.28
